system: HL60 cells; assay: AsedaSciences SYSTEMETRIC Cell Health Screen (flow cytometry toxicity profiling); conditions: HL60, 4 h, 5 nM–100 µM, probability 0–1, n = 2
endpoint.label: CC: Cell Cycle score
Please reply with the number alone, leaving off any unit.

{"compound": "C#Cc1cccc(Nc2ncnc3cc(C(F)(F)F)ccc23)c1", "endpoint.label": "CC: Cell Cycle score", "value.measured": 0.92}
{"compound": "CS(=O)(=O)CCNCc1ccc(-c2ccc3ncnc(Nc4ccc(OCc5cccc(F)c5)c(Cl)c4)c3c2)o1 [Lapatinib, reference compound]", "endpoint.label": "CC: Cell Cycle score", "value.measured": 0.93}
{"compound": "C#Cc1cccc(Nc2ncnc3cc(OC)c(OC)cc23)c1", "endpoint.label": "CC: Cell Cycle score", "value.measured": 0.086}

# context switch: different compound, same CC: Cell Cycle score
What value of CC: Cell Cycle score has been reported for the following compound? CC/C(=C(\c1ccccc1)c1ccc(OCCN(C)C)cc1)c1ccccc1 [Tamoxifen, reference compound]
0.98

----------
test system: HL60 cells; assay: AsedaSciences SYSTEMETRIC Cell Health Screen (flow cytometry toxicity profiling); details: HL60, 4 h, 5 nM–100 µM, probability 0–1, n = 2
Entries and their CC: Cell Cycle score
Answer field: number only, no words.

Here are 3 compounds together with their reported answers.
{"compound": "CCc1nn(CCCN2CCN(c3cccc(Cl)c3)CC2)c(=O)n1CCOc1ccccc1 [Nefazodone, reference compound]", "endpoint.label": "CC: Cell Cycle score", "value.measured": 0.97}
{"compound": "NC(=O)c1ncn([C@@H]2O[C@H](CO)[C@@H](O)[C@H]2O)n1 [Ribavirin, reference compound]", "endpoint.label": "CC: Cell Cycle score", "value.measured": 0.040}
{"compound": "COc1ccc2cc3[n+](cc2c1OC)CCc1cc2c(cc1-3)OCO2 [Berberine, reference compound]", "endpoint.label": "CC: Cell Cycle score", "value.measured": 0.99}

# CC: Cell Cycle score lookup, item C#Cc1cccc(Nc2ncnc3ccc(C(F)(F)F)cc23)c1 [Compound 10]
0.59

----------
// reported Cell Health Toxcity Profile CM (Cell morphology) per item
tested on: HL60 cells; test: AsedaSciences SYSTEMETRIC Cell Health Screen (flow cytometry toxicity profiling); details: SYSTEMETRIC Cell Health Screen; assay n=2
# respond with the number and nothing more

{"entry.smiles": "C#Cc1cccc(Nc2c(C#N)cnc3ccc(S(C)(=O)=O)cc23)c1", "value.measured": 0.003}
{"entry.smiles": "C#Cc1cccc(Nc2c(C#N)cnc3ccccc23)c1", "value.measured": 0.99}
{"entry.smiles": "C#Cc1cccc(Nc2c(C#N)cnc3ccc(F)cc23)c1", "value.measured": 0.98}
{"entry.smiles": "C#Cc1cccc(Nc2c(C#N)cnc3cc(OC)c(OC)cc23)c1", "value.measured": 0.35}

# Cell Health Toxcity Profile CM (Cell morphology) lookup, item C#Cc1cccc(Nc2c(C#N)cnc3cc(Cl)ccc23)c1
0.31

One more molecule: C#Cc1cccc(Nc2c(C#N)cnc3ccc(I)cc23)c1
0.88

Same lookup for C#Cc1cccc(Nc2c(C#N)cnc3ccc(Cl)cc23)c1 , please.
1.00

Subsequent entry: C#Cc1cccc(Nc2c(C#N)cnc3cc(I)ccc23)c1
1.00

Now give it for C#Cc1cccc(Nc2c(C#N)cnc3ccc(OC)cc23)c1 too.
0.020

What do you get for C#Cc1cccc(Nc2c(C#N)cnc3cc(Br)ccc23)c1 ?
0.95

Here is the next molecule: C#Cc1cccc(Nc2c(C#N)cnc3cc(OC)ccc23)c1
0.97

Try the molecule C#Cc1cccc(Nc2c(C#N)cnc3ccc(Br)cc23)c1
1.00
